Tested on: Escherichia coli TOP10;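 further: peptides expressed intracellularly from a pBAD plasmid library in pooled LB shake-flask culture, induced with 0.3% L-arabinose, DNA abundance read by NGS, three biological replicates, DESeq2 with apeglm shrinkage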
Experiment Notes: shrunken log2 fold change of peptide-encoding DNA abundance (4.5 h post-induction vs induction); higher = less antimicrobial activity (less host growth inhibition)
Measurement Setup: time post-induction: 4.5 h; library: site-saturation at positions 5, 18, 19, 20
Param threshold (-0.04) applies to shrunken log2 fold change; output condition met when value >= threshold, condition not met when value < threshold.

As a guide, the following entries are already answered.
- Residue Codes: "RRIRYRPPRLPRPRPRPDHYPRP"
  Test System: "Escherichia coli TOP10"
  Class: "condition met"
- Residue Codes: "RRIRVRPPRLPRPRPRPHFQPRP"
  Test System: "Escherichia coli TOP10"
  Class: "condition not met"
- Residue Codes: "RRIRIRPPRLPRPRPRPDQNPRP"
  Test System: "Escherichia coli TOP10"
  Class: "condition met"
- Residue Codes: "RRIRKRPPRLPRPRPRPTHWPRP"
  Test System: "Escherichia coli TOP10"
  Class: "condition met"
- Residue Codes: "RRIRHRPPRLPRPRPRPSATPRP"
  Test System: "Escherichia coli TOP10"
  Class: "condition met"

In: Kindly determine if shrunken log2 fold change recorded for RRIRTRPPRLPRPRPRPVWAPRP is above or exactly -0.04.
Out: condition met

In: Kindly determine if shrunken log2 fold change recorded for RRIRARPPRLPRPRPRPIERPRP is above or exactly -0.04.
Out: condition met

In: Kindly determine if shrunken log2 fold change recorded for RRIRDRPPRLPRPRPRPLCWPRP is above or exactly -0.04.
Out: condition met

In: Kindly determine if shrunken log2 fold change recorded for RRIRIRPPRLPRPRPRPTCFPRP is above or exactly -0.04.
Out: condition not met

In: Kindly determine if shrunken log2 fold change recorded for RRIRFRPPRLPRPRPRPEHDPRP is above or exactly -0.04.
Out: condition not met

In: Kindly determine if shrunken log2 fold change recorded for RRIRDRPPRLPRPRPRPCTQPRP is above or exactly -0.04.
Out: condition met

In: Kindly determine if shrunken log2 fold change recorded for RRIRLRPPRLPRPRPRPIRAPRP is above or exactly -0.04.
Out: condition met

In: Kindly determine if shrunken log2 fold change recorded for RRIRSRPPRLPRPRPRPVQMPRP is above or exactly -0.04.
Out: condition met

In: Kindly determine if shrunken log2 fold change recorded for RRIRHRPPRLPRPRPRPEYRPRP is above or exactly -0.04.
Out: condition met

In: Kindly determine if shrunken log2 fold change recorded for RRIRIRPPRLPRPRPRPVLEPRP is above or exactly -0.04.
Out: condition met

In: Kindly determine if shrunken log2 fold change recorded for RRIRMRPPRLPRPRPRPGKRPRP is above or exactly -0.04.
Out: condition met

In: Kindly determine if shrunken log2 fold change recorded for RRIRPRPPRLPRPRPRPQINPRP is above or exactly -0.04.
Out: condition not met
